src = patent US20250090504A1

Test: Mitochondrial stress vulnerability rescue assay (Alamar Blue)
Type: cell-based, human
Settings: human; stressor rotenone 2 μM and 5 μM, 16 hours, FIGS. 10E and 10F; read-out: loss of neuronal viability
readout: cytotoxicity at 16 h

In: What value of cytotoxicity at 16 h has been recorded for this entry: C=C(C)[C@H]1Cc2c(ccc3c2O[C@@H]2COc4cc(OC)c(OC)cc4[C@@H]2C3=O)O1 [rotenone, reference compound]
Out: > 50%
